Test system: RAW-Dual (murine macrophage reporter line)
Test: viability score (confluency relative to resting cells, overnight) (fraction); higher = more viable, active = viable (0.7 or more)
Settings: modulator concentration 10 µM
MEASURED_PROPERTY: viability score
No unit in the answer, only the number.

- MOLECULE: "CC(C(=O)O)c1ccc(CC2CCCC2=O)cc1 (configuration not stated)"
  MEASURED_PROPERTY: "viability score"
  RESULT_VALUE: 1

What viability score value was documented for this molecule, CN1CC(=O)N2[C@H](c3ccc4c(c3)OCO4)c3[nH]c4ccccc4c3C[C@@H]2C1=O ?
0.981

Consider the molecule COc1cc(C=NNC(=O)c2ccc(OC)c(OC)c2)ccc1O and give its measured viability score.
0.996

What value of viability score has been recorded for this entry: Cl.Cl.OCCOCCN1CCN(C(c2ccccc2)c2ccc(Cl)cc2)CC1 (configuration not stated)
0.965

Data origin, for the record: the supplement of paper PMC10646978
